The measured values listed here are drawn from patent US20240279318A1.

target: T1, AFP158/HLA-A*02:01 complex (human); assay: SPR; vs AS170036 VL1VH1;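 further: crude scFv captured on sensor chip, peptide–HLA complex flowed over at several concentrations, KD estimated from association and dissociation kinetic rates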
T1 construct: biotinylated on the BSP by BirA for ELISA and panning; also called biotinylated AFP158/HLA-A*02:01 complex; Bio-AFP158
List of Affinity increase values.
metric: Affinity increase (fold)

AS170036 VL1VH1 HG56H (scFv) scFv: QSALTQPRSVSGSPGQSVTISCAGTSSDVGSENYVSWYQQHPGKAPKLMIYQVNKRASGVPDRFSGSKSGNTASLTISGLQAEDEADYYCASYRSSDHNIVFGGGTKLTVLGGGGSGGGGSGGGGSEVQLVESGGGLVQPGGSLRLSCAASGFTFSSYAMSWVRQAPGKGLEWVSTINSGTHSPYYADSVKGRFTISRDNSKNTLYLQMNSLRAEDTAVYYCAKNFFDGSWFLGPPAMDYWGQGTLVTVSSHHHHHH : 1.5
AS170036 VL1VH1 HP110N (scFv) scFv: QSALTQPRSVSGSPGQSVTISCAGTSSDVGSENYVSWYQQHPGKAPKLMIYQVNKRASGVPDRFSGSKSGNTASLTISGLQAEDEADYYCASYRSSDHNIVFGGGTKLTVLGGGGSGGGGSGGGGSEVQLVESGGGLVQPGGSLRLSCAASGFTFSSYAMSWVRQAPGKGLEWVSTINSGTGSPYYADSVKGRFTISRDNSKNTLYLQMNSLRAEDTAVYYCAKNFFDGSWFLGPNAMDYWGQGTLVTVSSHHHHHH : 0.2
